meta.source: the supplement of paper PMC10567573

Each entry below carries its reported protein stability index.
B1: PTPRD (parent)
chain: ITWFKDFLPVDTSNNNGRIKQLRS

Variants of: B1
Experiment: protein stability index of a GFP-peptide fusion (GPS, HEK-293T) (PSI 1-6); higher = more stable;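 also: lentivirally expressed fusions sorted by FACS into six bins by GFP to DsRed ratio, PSI derived from sequencing read proportions per bin multiplied by bin number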
Conditions: c terminus: a fixed tail appended
Answer as a number with no unit attached.

Q: Please report the measured protein stability index for F4L
A: 1.87

Q: Give the value of protein stability index reported for the following: N14C
A: 1.52

Q: Provide one value: measured protein stability index of K5M
A: 2.43

Q: Hello, please tell me recorded protein stability index for this one: K5T
A: 2.1

Q: Note down protein stability index recorded for S24P
A: 1.34

Q: Please indicate protein stability index recorded for W3N
A: 3.23

Further cases:
Q: Give protein stability index for N15I
A: 1.58

Q: Dear colleague, please send me the reported protein stability index for P9N when you can.
A: 2.28

Q: Fill in protein stability index for record N16A
A: 1.78

Q: Supply recorded protein stability index for F7E here.
A: 2.45

Q: Given F7I , respond with its protein stability index.
A: 2.26
